- experimentNotes: Measurement of thermodynamic solubility
- Format: physicochemical
- conditionContext: pH 6.8, aqueous buffer, thermodynamic from solid; pH of about 6.8; read-out: solubility in water
Each entry below carries its reported solubility at 24 h.

CCCC1(S(=O)(=O)NC(=O)[C@@]2(NC(=O)[C@@H]3C[C@@]4(CN3C(=O)[C@@H](NC(=O)[C@@H](NC(=O)[C@@H]3CCCN3CC)C3CCCCC3)C(C)(C)C)C(C)(C)C43CCC3)C[C@H]2CC)CC1 :: ≥ 30 µM

Report solubility at 24 h for C=C[C@@H]1C[C@]1(NC(=O)[C@@H]1C[C@@]2(CN1C(=O)[C@@H](NC(=O)[C@@H](NC(=O)[C@@H]1CCCCN1CC)C1CCCCC1)C(C)(C)C)C(C)(C)C21CCC1)C(=O)NS(=O)(=O)C1(CCC)CC1 please.
≥ 30 µM

I am curious: what solubility at 24 h value has been reported for CC[C@@H]1C[C@]1(NC(=O)[C@@H]1C[C@@]2(CN1C(=O)[C@@H](NC(=O)[C@@H](NC(=O)[C@@H]1CCCCN1CC)C1CCCCC1)C(C)(C)C)C(C)(C)C21CCC1)C(=O)NS(=O)(=O)C1(C)CC1 ?
≥ 30 µM

====

- experimentNotes: in vivo
- Set-up: species or system Sprague Dawley rats
- conditionContext: Sprague Dawley, rat, po, 10 mg/kg
- Experimental: Certain compounds of Table A and Comparative Example 1 (Compound A-7 of copending international patent application serial no. PCT/EP08/063,460) are administered as a solution orally via gavage at 10 mg/kg to Sprague Dawley rats at a dosing volume of 10 ml/kg. Samples are collected via a surgically implanted cannula at selected timepoints deemed necessary to characterize pharmacokinetic parameters. Blood samples are placed on wet ice and spun down to plasma within 5 minutes of timepoint collection. […]
Entries annotated with measured Cmax
Your reply should be a number followed by the unit it is expressed in.

CCCC1(S(=O)(=O)NC(=O)[C@@]2(NC(=O)[C@@H]3C[C@@]4(CN3C(=O)[C@@H](NC(=O)[C@@H](NC(=O)[C@@H]3CCCN3CC)C3CCCCC3)C(C)(C)C)C(C)(C)C43CCC3)C[C@H]2CC)CC1 [Compound 75] :: 289 nM

--- query ---
I'd like to know its Cmax. The compound in question is C=C[C@@H]1C[C@]1(NC(=O)[C@@H]1C[C@@]2(CN1C(=O)[C@@H](NC(=O)[C@@H](NC(=O)[C@@H]1CCCCN1C(C)C)C1CCCCC1)C(C)(C)C)C(C)(C)C21CCC1)C(=O)NS(=O)(=O)C1(CCC)CC1 [Compound 68]
348 nM

====

Listing of entries alongside the reported IC50.
- tgt: HCV NS3-4A serine protease (full-length NS3-4A protein, genotype 1a, strain HCV-1) (Hepatitis C virus genotype 1a, UniProt P26664)
- Construct: using the full-length NS3-4A protein (genotype 1a, strain HCV-1)
- Sequence (P26664 1658-1711): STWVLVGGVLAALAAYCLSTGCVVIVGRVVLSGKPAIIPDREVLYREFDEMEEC
- Sequence (P26664 1027-1657): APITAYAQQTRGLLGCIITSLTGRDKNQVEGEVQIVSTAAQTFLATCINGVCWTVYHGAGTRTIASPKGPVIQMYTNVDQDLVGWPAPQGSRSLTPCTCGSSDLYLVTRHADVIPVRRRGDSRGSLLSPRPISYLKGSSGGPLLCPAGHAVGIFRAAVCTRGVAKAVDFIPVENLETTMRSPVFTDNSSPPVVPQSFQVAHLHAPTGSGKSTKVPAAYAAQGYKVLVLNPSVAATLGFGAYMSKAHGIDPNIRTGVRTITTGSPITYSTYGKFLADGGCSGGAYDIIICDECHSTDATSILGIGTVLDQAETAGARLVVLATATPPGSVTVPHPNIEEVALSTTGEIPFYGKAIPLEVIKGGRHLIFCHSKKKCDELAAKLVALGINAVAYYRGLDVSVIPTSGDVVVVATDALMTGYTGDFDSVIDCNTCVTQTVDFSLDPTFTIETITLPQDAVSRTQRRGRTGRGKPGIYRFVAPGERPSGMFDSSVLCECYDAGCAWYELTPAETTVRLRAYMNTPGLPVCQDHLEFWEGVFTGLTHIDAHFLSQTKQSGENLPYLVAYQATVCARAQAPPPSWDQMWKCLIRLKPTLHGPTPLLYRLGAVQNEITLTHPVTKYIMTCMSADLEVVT
- experimentNotes: HCV NS3-4A protease assay
- Type: biochemical
- conditionContext: read-out: Protease IC50

C=C[C@@H]1C[C@]1(NC(=O)[C@@H]1C[C@@]2(CN1C(=O)[C@@H](NC(=O)[C@@H](CC(=O)N1CCCCC1)C(C)(C)C)C(C)(C)C)C(C)(C)C21CCC1)C(=O)NS(=O)(=O)C1CC1 [Compound 60] :: 200 nM
C=C[C@@H]1C[C@]1(NC(=O)[C@@H]1C[C@@]2(CN1C(=O)[C@@H](NC(=O)OC1CCCC1)C(C)(C)C)C(C)(C)C21CCC1)C(=O)NS(=O)(=O)C1CC1 [Compound 10] :: 25 nM
C=C[C@@H]1C[C@]1(NC(=O)[C@@H]1C[C@@]2(CN1C(=O)[C@@H](NC(=O)[C@@H](NS(=O)(=O)c1cn(C)cn1)C(C)(C)C)C(C)(C)C)C(C)(C)C21CCC1)C(=O)NS(=O)(=O)C1CC1 [Compound 52] :: 200 nM

Query molecule follows.
What does the record list as IC50 for C=C[C@@H]1C[C@]1(NC(=O)[C@@H]1C[C@@]2(CN1C(=O)[C@@H](NC(=O)[C@@H](NS(=O)(=O)c1ccccc1)C(C)(C)C)C(C)(C)C)C(C)(C)C21CCC1)C(=O)NS(=O)(=O)C1CC1 [Compound 46] ?
150 nM

====

- tgt: HCV NS3-4A serine protease (full-length NS3-4A protein, genotype 1a, strain HCV-1) (Hepatitis C virus genotype 1a)
- Construct: using the full-length NS3-4A protein (genotype 1a, strain HCV-1)
- experimentNotes: HCV NS3-4A protease assay
- Assay type: biochemical
- conditionContext: Protease IC50
The class of a record is decided solely by its measured IC50; consult bucket 1 (below 2 nM), bucket 2 (2 nM to below 10 nM), bucket 3 (10 nM or more)

Band for the recorded IC50 of C=C[C@@H]1C[C@]1(NC(=O)[C@@H]1C[C@@]2(CN1C(=O)[C@@H](NC(=O)[C@@H]1CCCCCCCN3CCCC[C@H]3C(=O)N1)C(C)(C)C)C(C)(C)C21CCC1)C(=O)NS(=O)(=O)C1CC1 ?
bucket 2

State the band of C=C[C@@H]1C[C@]1(NC(=O)[C@@H]1C[C@@]2(CN1C(=O)[C@@H](NC(=O)[C@@H](NC(=O)OC(C)(C)C)C(C)(C)C)C(C)(C)C)C(C)(C)C21CCC1)C(=O)NS(=O)(=O)C1CC1
bucket 3

Category of C=C[C@@H]1C[C@]1(NC(=O)[C@@H]1C[C@@]2(CN1C(=O)[C@@H](NC(=O)[C@@H](NC(=O)c1cc(C(C)C)n[nH]1)C(C)(C)C)C(C)(C)C)C(C)(C)C21CCC1)C(=O)NS(=O)(=O)C1CC1 , please.
bucket 2

# bin lookup: classify C=C[C@@H]1C[C@]1(NC(=O)[C@@H]1C[C@@]2(CN1C(=O)[C@@H](NC(=O)[C@@H](NC(=O)c1cnccn1)C(C)(C)C)C(C)(C)C)C(C)(C)C21CCC1)C(=O)NS(=O)(=O)C1CC1 by its IC50
bucket 2

In plain terms, what class is C=C1CC(NC(=O)[C@@H]2C[C@@]3(CN2C(=O)[C@@H](NC(=O)[C@@H](NC(=O)[C@@H]2CCCCN2C(C)C)C(C)(C)C)C(C)(C)C)C(C)(C)C32CCC2)(C(=O)NS(=O)(=O)C2CC2)C1 ?
bucket 3

Pick a category. Item: C=C[C@@H]1C[C@]1(NC(=O)[C@@H]1C[C@@]2(CN1C(=O)[C@@H](NC(=O)[C@@H](NC(=O)[C@H]1CCCCN1C(C)C)C1CCCCC1)C(C)(C)C)C(C)(C)C21CCC1)C(=O)NS(=O)(=O)C1(C)CC1
bucket 1

Lab log: C=C[C@@H]1C[C@]1(NC(=O)[C@@H]1C[C@@]2(CN1C(=O)[C@@H](NC(=O)[C@@H](NC(=O)c1cnccn1)C1CCCCC1)C(C)(C)C)C(C)(C)C21CCC1)C(=O)NS(=O)(=O)C1(C)CC1 — assign IC50 category
bucket 1

====

Known pIC50 of a selection of compounds
- tgt: HCV NS3-4A serine protease (full-length NS3-4A protein, genotype 1a, strain HCV-1) (Hepatitis C virus genotype 1a, UniProt P26664)
- Construct: using the full-length NS3-4A protein (genotype 1a, strain HCV-1)
- experimentNotes: HCV NS3-4A protease assay
- Assay type: biochemical
- conditionContext: Protease IC50
Please note pIC50 is a logarithmic value: minus log10 of concentration in mol/L. Answer with that number alone.

Study these solved cases before continuing.
C=C[C@@H]1C[C@]1(NC(=O)[C@@H]1C[C@@]2(CN1C(=O)[C@@H](NC(=O)[C@@H](NC(=O)c1c(C)n[nH]c1C)C(C)(C)C)C(C)(C)C)C(C)(C)C21CCC1)C(=O)NS(=O)(=O)C1CC1 :: 7.70
CC[C@@H]1C[C@]1(NC(=O)[C@@H]1C[C@@]2(CN1C(=O)[C@@H](NC(=O)[C@@H](NC(=O)c1cnccn1)C(C)(C)C)C(C)(C)C)C(C)(C)C21CCC1)C(=O)NS(=O)(=O)C1CC1 :: 7.40

Please report the recorded pIC50 for CC(C)N1CCCCC1C(=O)N[C@H](C(=O)N[C@H](C(=O)N1C[C@]2(C[C@H]1C(=O)N[C@]1(C(=O)NS(=O)(=O)C3CC3)CC=CCC1)C(C)(C)C21CCC1)C(C)(C)C)C1CCCCC1 (stereo partly shown) .
6.26

Could you tell me which pIC50 is on file for C=C[C@@H]1C[C@]1(NC(=O)[C@@H]1C[C@@]2(CN1C(=O)[C@@H](NC(=O)[C@@H](NC(=O)c1c(C)nn(C)c1C)C(C)(C)C)C(C)(C)C)C(C)(C)C21CCC1)C(=O)NS(=O)(=O)C1CC1 ?
7.52

====

- tgt: HCV NS3-4A serine protease (full-length NS3-4A protein, genotype 1a, strain HCV-1) (Hepatitis C virus genotype 1a, UniProt P26664)
- Construct: using the full-length NS3-4A protein (genotype 1a, strain HCV-1)
- experimentNotes: HCV NS3-4A protease assay
- Assay type: biochemical
- conditionContext: Protease IC50
parameterMeasured: pIC50
// pIC50 here means minus log10 of the molar concentration (mol/L)

# count of solved cases: 3
C=C[C@@H]1C[C@]1(NC(=O)[C@@H]1C[C@@]2(CN1C(=O)[C@@H](NC(=O)[C@@H](NC(=O)[C@@H]1CCCN1CC)C1CCCCC1)C(C)(C)C)C(C)(C)C21CCC1)C(=O)NS(=O)(=O)C1(C)CC1 [Compound 71] :: 9.52
C=C[C@@H]1C[C@]1(NC(=O)[C@@H]1C[C@@]2(CN1C(=O)[C@@H](NC(=O)[C@@H](NC(=O)[C@@H]1CCCCN1C(C)C)C1CCCCC1)C(C)(C)C)C(C)(C)C21CCC1)C(=O)NS(=O)(=O)C1(C)CC1 [Compound 63] :: 8.74
C=C[C@@H]1C[C@]1(NC(=O)[C@@H]1C[C@@]2(CN1C(=O)[C@@H](NC(=O)[C@@H](NC(=O)[C@@H]1CCCCN1C(C)C)C1CCCCC1)C(C)(C)C)C(C)(C)C21CCC1)C(=O)NS(=O)(=O)C1CC1 [Compound 92] :: 9.40

Now examine the next entry.
If you can, please state the reported pIC50 value of C=C[C@@H]1C[C@]1(NC(=O)[C@@H]1C[C@@]2(CN1C(=O)[C@@H](NC(=O)[C@@H](NC(=O)c1nc3ccccc3[nH]1)C(C)(C)C)C(C)(C)C)C(C)(C)C21CCC1)C(=O)NS(=O)(=O)C1CC1 [Compound 120] .
9.15

FYI, the data here is from patent US20110182850A1.
